assay: yeast display, Sf9 membrane polyspecificity reagent, FACS + sequencing; frameworks hold sequencing errors
OBSERVATION TYPE: polyreactivity (PSR sort gate)

{"SEQUENCE CHAIN": "QVQLVESGGGLVQAGGSLRLSCAASGITIKYYTMGWYRQAPGKERELVAAISRSGGSTYYADSVKGRFTISRDNAKNTVYLQMNSLIPEDTAVYYCAAERGAYRGVTFTYGYWGQGTQVTVSS", "OBSERVATION TYPE": "polyreactivity (PSR sort gate)", "ENDPOINT RESULT": "high polyreactivity"}
{"SEQUENCE CHAIN": "QVQLVESGGGLDQAGGSLRLSCAASGGTFARYAMGWYRQAPGKERELVAAISARGGSTYYADSVKGRFTISRDNAKNTVYLQMNSLKPEDTAVYYCAAKKWYDRYGFDYWGQGTQVTVSS", "OBSERVATION TYPE": "polyreactivity (PSR sort gate)", "ENDPOINT RESULT": "high polyreactivity"}
{"SEQUENCE CHAIN": "QVQLVESGGGLVQAGGSLRLSCAASGSIFDWYDMGWYRQAPRKEGELVAAISSGDSSYYADSVKGRFTISRDNAKNTVYFQIISLKPEDTAVYFCAAVTKLSGIRYNYWGQGTQLTVSS", "OBSERVATION TYPE": "polyreactivity (PSR sort gate)", "ENDPOINT RESULT": "low polyreactivity"}
{"SEQUENCE CHAIN": "QVQLVESGGGLVQAGGSLRLSCAASGSTFNKYAMGWYRQAPGKERELVAAISSSGGSTYYADSVKGRFTISRDNAKNTVYLQMNSLKPEDTAVYYCNARRTYSVPARRYYYWGQGTQVTVSS", "OBSERVATION TYPE": "polyreactivity (PSR sort gate)", "ENDPOINT RESULT": "high polyreactivity"}

We next turn to a different sequence, shown below.
Fill in reported polyreactivity (PSR sort gate) for this entry: "QVQLVESGGGLVQAGGSLRLSCAASGNILPSNAMGRYREAPGKEWELVAAITWSVGRTYYADSVKGRFTISRDNAKYTVYLQMNSLKPEDTAVYYCAADDYWDDVYYYVTGSTGYDYWGQGTQVTVSS" low polyreactivity

###

assay: yeast display, Sf9 membrane polyspecificity reagent, FACS + sequencing; frameworks hold sequencing errors
OBSERVATION TYPE: polyreactivity (PSR sort gate)

Worked examples, 10 sequences total:
{"SEQUENCE CHAIN": "QVQLVESGGGLVQAGGSLRLSCAASGSIIRKYAMGCYRPAPGKERELVAAITSGGRTYYADSVKGRFTISRDNAKNTVYLQMNSLKPEDTAVYYCNARVRGYYEYNYWGQGTQVTVSS", "polyreactivity (PSR sort gate)": "high polyreactivity"}
{"SEQUENCE CHAIN": "QVQLVESGGGLVQAGGSLRLSCAASGITFSSYVMGWYRQAPGKERELVAAISRSGGITYYADSVKGRFTISRDNAKNTVYIQMNSLKPEDTAVYYCAATFPAGWSYANYYYWGQGTQVTVSS", "polyreactivity (PSR sort gate)": "high polyreactivity"}
{"SEQUENCE CHAIN": "QVQLVESGGGLVQAGGSLRLSCAASGRTLATYAMGWYRQAPGKERELVADISWRGGTTYYADSVKGRFTISRDNAKNTVYLQMNSLKPEDTAVYYCAAVRKQGSGFDYWGQGTQVTLSS", "polyreactivity (PSR sort gate)": "high polyreactivity"}
{"SEQUENCE CHAIN": "QVQLVESGGGLVQAGGSLRLSCAASGRIFGYNAMGWYRQAPGKERELVAAIDYTGGSTYYADSVKGRFTISRDNAKNTVYLQMNSLKPEDTAVYYCAKDRTTPWEEDDYWGQGTQVTVSS", "polyreactivity (PSR sort gate)": "low polyreactivity"}
{"SEQUENCE CHAIN": "QVQLVESGGGLVQSGGSLRLSCAASGRTFFENAMGWYRPAPGKEREFVAAISYNGGSTYYADSVKGRFTISRDNAKNTVYLQMNSLKPEDTAVYYCAADPNYGYDYWGQGTQVTVSS", "polyreactivity (PSR sort gate)": "low polyreactivity"}
{"SEQUENCE CHAIN": "QVQLVESGGGLVQAGGSLRLICAASGLILKYYAMGWYRQAPGKEREFVAAITRRGGITYYADSVKGRFTISRDNAKNTVYLQMNSLKPEDTAVYYCAADPKLGSLAYWRYSYPLYDYWGQGTQVTVSS", "polyreactivity (PSR sort gate)": "low polyreactivity"}
{"SEQUENCE CHAIN": "QVQLVESGGGLVQAGGSLRLSCAASGYIFDYYAMGWYRQAPGKERELVAGISRRGGSTYYADSVKGRFTISRDNAKNTVYLQMNSLKPEDTAVYYCAGLGDDATSYGYWGQGTQVTVSS", "polyreactivity (PSR sort gate)": "high polyreactivity"}
{"SEQUENCE CHAIN": "QVQLVESGGGLVQAGGSLRLSCAASGRIFENNAMGWYRQAPGKERELVAAITSGGSTYYADSVKGRFTISRDNAKNTVYLQMNSLKPEDTAVYYCNVTFRVDPWTRTGYDYWGQGTQVTVSS", "polyreactivity (PSR sort gate)": "high polyreactivity"}
{"SEQUENCE CHAIN": "QVQLEDSGGGLVQAGGSLRLICAASGSILNYKAMGWYRHAPGKERELVAGIRSSGGSTYYADSVKGRFTISRDNAKNTVYLKMNSLKPEDTAVYDWAKRTYWRRGWGFDFWGQGTQVTVSS", "polyreactivity (PSR sort gate)": "high polyreactivity"}
{"SEQUENCE CHAIN": "QVQLVESGGGLVQAGGSLRLSCAASGRIFYGNPMGWYRQAPGKERELVAAISSGGGSTYYADSVKGRFTISRDNAKNTVYLQMNSLKPEDTAVYYCAADPVHRFPGTGGYWGQGTQVTVSS", "polyreactivity (PSR sort gate)": "low polyreactivity"}

We next turn to a different sequence, shown below.
Fill in reported polyreactivity (PSR sort gate) for this entry: "QVQLVESGGGLVQAGGSLRLSCAASGSTSGIYAMGWYRQAPGKERELVAAIDTSGGSTYADSVKGRFTISRDNAKNTVYLQMNSLKPEDTAVYYCAKPFSSNSWSHGYWGQGTQVTVSS" low polyreactivity

###

assay: yeast display, Sf9 membrane polyspecificity reagent, FACS + sequencing; frameworks hold sequencing errors
OBSERVATION TYPE: polyreactivity (PSR sort gate)

Worked examples, 4 sequences total:
{"SEQUENCE CHAIN": "QVQLVESGGGLVQAGGSLRLSCAASGSIFGLNAMGWYRQPPGKERELVAAINSDGDTYYADSVKGRFTISRDNAKNTVYLQMNSLKPEDTAVYYCSADYYWDPFDSNFGHVPQEYESWGQGTQVTVSS", "ENDPOINT RESULT": "low polyreactivity"}
{"SEQUENCE CHAIN": "QVQLVESGGGLFQAGGSLRLSCAATGSTFSGYAMGWYRQATGKDRELVAAIASTGRTYYADSVKGRFTISRDNAKKTVYLQMNSLKPEDTAVYYCAAKRYTVYVHKYEYWGQGTKVTVSS", "ENDPOINT RESULT": "high polyreactivity"}
{"SEQUENCE CHAIN": "QVQHVESGGGKVQAGGSLRLSCASSGFTIMSYAMGWYRQAPGKERELVAAISRSGGSTYYADSVKGRFTISRDKAKNTVYLQMISLKPEDTAVYYCAARSAFRKQFSRNNYWGQGSQVTVSS", "ENDPOINT RESULT": "high polyreactivity"}
{"SEQUENCE CHAIN": "QVQLVESGGGLVQAGGSLRLSCAASGSTFDDYAMGWYRQAPGKEREFVAAITYGGGNTYYADSVKGRFTISRDNAKNTVYLQMNSLKPEDTAVYYCNKLSRGFSPKYGYWGQGTQVTVSS", "ENDPOINT RESULT": "high polyreactivity"}

Fill in reported polyreactivity (PSR sort gate) for this entry: "QVQLVESGGGLVQAGGSLRLSCAASGRTLYRNAMGWYRQAPGKERELVAAISRSGGITYYADSVKGRFTISRDNAKNTVYLQMNSLKPEDTAVYYCAARYGRGVAPYGYWGQGTQVTVSS" high polyreactivity

Fill in reported polyreactivity (PSR sort gate) for this entry: "QVQLVESGGGLVQAGGSLRLSCAASGIIFPYYAMGLYRQAPGKERELVAAITSRTGSTYYADSVKGRFTISRDNAKNTVYLQMNSLNTEYTAVYYCIKEREPYGYWSFDYWGQGTQVTVSS" low polyreactivity

Fill in reported polyreactivity (PSR sort gate) for this entry: "QVQLVESGGGLVQAGGSLRLSCAASGLTFQGYAMGWYRQAPGKERELVAAISSSGDITYYADSVKGRFTISRDNAKNTVYLQMNSLKPEDTAVYYCAAEAEYYVYGTYDYWGQGTQVTVSS" high polyreactivity

Fill in reported polyreactivity (PSR sort gate) for this entry: "QVQLVESGGGLVQAGGSLRLSCAASGRIFYINAMGWYRQAPGKERELVAAISWSGSSTYYADSVKGRFTISRDNAKNTVYLQMNSLKPEDTAVYYCAAVSYKRVDYWGQGTQVTVSS" high polyreactivity

Fill in reported polyreactivity (PSR sort gate) for this entry: "QVQLVESGGGLVQAGGSLRLSCAASGRTFVYYAMGWYRQAPGKEREFVAAISRSGGRTSYADSVKGRFTISRDNAKNTVYLQMNSLKPEDTAVYYCAAEKRTQPSSREYYWGQGTQVTVSS" high polyreactivity

Fill in reported polyreactivity (PSR sort gate) for this entry: "QVQLVESGGGLVQAGGSLRLSCAASGFTFFSNAMGWYRQAPGKDRELVAAITSSGGSTYADSVKGRFTISRDNAKNTVYLQMNSLKPEDTAVYYCAADAQAPPCGFKEYDYWGQGTQVTVSS" low polyreactivity

Fill in reported polyreactivity (PSR sort gate) for this entry: "QVQLVESGGGLVQAGGSLRLSCAASGRTFGYYDMGWYRPAPGKERELVAAITWIDGRTYYADSVKGRFTISRDNAKNTVYLQMNSLKPEDTAVYYCAKRHKAGFYRTYRYGYWGQGTQVTVSS" high polyreactivity

Data origin, for the record: the nanobody polyreactivity screen of Harvey et al. (2022)
